Where do the numbers come from? From patent US10131648B2.

Record form. Attribute: pEC50. Fill in for each entry.
- SYSTEM: human GPR40 (Homo sapiens (Human), UniProt O14842)
- Sequence (O14842 whole entry): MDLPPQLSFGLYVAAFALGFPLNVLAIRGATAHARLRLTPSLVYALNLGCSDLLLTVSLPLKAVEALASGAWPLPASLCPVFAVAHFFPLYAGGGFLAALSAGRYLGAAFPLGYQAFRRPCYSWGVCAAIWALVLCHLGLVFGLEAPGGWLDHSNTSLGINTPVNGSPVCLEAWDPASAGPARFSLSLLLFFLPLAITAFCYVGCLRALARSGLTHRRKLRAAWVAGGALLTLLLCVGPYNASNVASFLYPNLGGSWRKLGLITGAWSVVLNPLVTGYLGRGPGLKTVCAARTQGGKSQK
- ASSAY_INFO: GPR40 Calcium Flux Assay
- TEST_CONTEXT: transfected HEK293 cells stably expressing human GPR40; Ca2+ mobilization; mean data; read-out: hGPR40 Ca^2+ Assay EC50
Answers are plain numbers, as −log10 of the molar value.

Illustrative cases are given below, each with its answer.
{"MOLECULE": "CC#C[C@@H](CC(=O)O)c1ccc(COc2ccc3scc(-c4ccc(C5CCS(=O)(=O)CC5)cc4C)c3c2)cc1", "RESULT": 7.74}
{"MOLECULE": "Cc1cc(OC2CCS(=O)(=O)CC2)ccc1-c1csc2ccc(COc3ccc(C4(CC(=O)O)CC(=O)C4)cc3)cc12", "RESULT": 7.82}
{"MOLECULE": "CC#C[C@@H](CC(=O)O)c1ccc(COc2ccc3scc(-c4ccccc4C)c3c2)cc1", "RESULT": 8.00}

Record pEC50 for all entries; do not skip any.
1. Cc1cc(C2CCS(=O)(=O)CC2)ccc1-c1csc2ccc(COc3ccc(C4(CC(=O)O)CC(=O)C4)cc3)cc12
2. CC#C[C@@H](CC(=O)O)c1ccc(OCc2ccc3scc(-c4ccc(OCC5(C)CS(=O)(=O)C5)cc4C)c3c2)cc1

[7.47, 7.96]

Record pEC50 for all entries; do not skip any.
1. CC#C[C@@H](CC(=O)O)c1ccc(OCc2ccc3scc(-c4ncc(OCCOC)cc4C)c3c2)cc1
2. CC#C[C@@H](CC(=O)O)c1ccc(COc2ccc3scc(-c4ccc(OCC(O)CO)cc4C)c3c2)cc1 (stereo partly shown)

1. 8.00
2. 7.48

###

- SYSTEM: UniProt O14842
- ASSAY_INFO: GPR40 Calcium Flux Assay
- TEST_CONTEXT: transfected HEK293 cells stably expressing human GPR40; Ca2+ mobilization; mean data; read-out: hGPR40 Ca^2+ Assay EC50
- Protocol: Compounds were tested in a calcium flux assay using transfected HEK293 cells stably expressing either human GPR40 or rat GPR40. […] The cell plate and a plate of diluted compounds of Formula (I) were loaded into a fluorescent plate reader that added compounds onto the cells while measuring the fluorescence intensity of each well. The plate reader recorded fluorescence intensity at 1 second intervals for 8 min and provided the data for analysis in an Excel format. […]
METRIC: EC50 (nM)
One number for each entry, in nM.

Illustrative cases are given below, each with its answer.
{"COMPOUND": "CC#C[C@@H](CC(=O)O)c1ccc(OCc2ccc3scc(-c4cnccc4OC)c3c2)cc1", "EC50, nM": 11}
{"COMPOUND": "CC#C[C@@H](CC(=O)O)c1ccc(COc2ccc3scc(-c4ccc(OCC5(C)CS(=O)(=O)C5)cc4C)c3c2)cc1", "EC50, nM": 70}
{"COMPOUND": "Cc1cc(OC2CCOCC2)ccc1-c1csc2ccc(COc3ccc(C4(CC(=O)O)CC(=O)C4)cc3)cc12", "EC50, nM": 25}

Record EC50 for all entries; do not skip any.
1. CC#C[C@@H](CC(=O)O)c1ccc(OCc2ccc3scc(-c4cccc(OCCOC)c4C)c3c2)cc1
2. CC#C[C@@H](CC(=O)O)c1ccc(OCc2ccc3scc(-c4ccc(C5=CCS(=O)(=O)CC5)cc4C)c3c2)cc1
3. CC#C[C@@H](CC(=O)O)c1ccc(OCc2ccc3scc(-c4ccc(S(C)(=O)=O)cc4C)c3c2)cc1

9
15
12

Record EC50 for all entries; do not skip any.
1. Cc1ccccc1-c1csc2ccc(OCc3ccc(CCC(=O)O)cc3)cc12
2. CC#CC(CC(=O)O)c1ccc(OCc2ccc3scc(-c4ccccc4C)c3c2)nc1 (centres unmarked)

[890, 13]

###

- SYSTEM: human GPR40 (Homo sapiens (Human))
- ASSAY_INFO: GPR40 Calcium Flux Assay
- TEST_CONTEXT: transfected HEK293 cells stably expressing human GPR40; Ca2+ mobilization; mean data; read-out: hGPR40 Ca^2+ Assay EC50
METRIC: EC50 (nM)
Answers are plain numbers, in nM.

{"COMPOUND": "CC#C[C@@H](CC(=O)O)c1ccc(COc2ccc3scc(-c4ccc(OCCC(C)(C)O)cc4C)c3c2)cc1 [Cpd 54]", "MEASUREMENT_UNITS": "nM", "EC50": 44}
{"COMPOUND": "Cc1ccccc1-c1csc2ccc(COc3ccc(CCC(=O)O)cc3)cc12 [Cpd 1]", "MEASUREMENT_UNITS": "nM", "EC50": 7}
{"COMPOUND": "CC#C[C@@H](CC(=O)O)c1ccc(OCc2ccc3scc(-c4nc(Cl)ccc4C)c3c2)cc1 [Cpd 93]", "MEASUREMENT_UNITS": "nM", "EC50": 15}

Look up EC50 of CC#C[C@@H](CC(=O)O)c1ccc(OCc2ccc3scc(-c4ccccc4OCCOC)c3c2)cc1 [Cpd 68] and report it.
19

###

Record form. Attribute: EC50. Fill in for each entry.
- SYSTEM: UniProt O14842
- ASSAY_INFO: GPR40 Calcium Flux Assay
- Assay type: cell-based
- TEST_CONTEXT: transfected HEK293 cells stably expressing human GPR40; Ca2+ mobilization; mean data; read-out: hGPR40 Ca^2+ Assay EC50
Numbers only, in nM.

{"COMPOUND": "CC#C[C@@H](CC(=O)O)c1ccc(OCc2ccc3scc(-c4c(C)cccc4C)c3c2)cc1", "EC50 / nM": 41}
{"COMPOUND": "Cc1cc(OC2CCS(=O)(=O)CC2)ccc1-c1csc2ccc(COc3ccc([C@]4(CC(=O)O)C[C@@H](O)C4)cc3)cc12", "EC50 / nM": 43}
{"COMPOUND": "CC#C[C@@H](CC(=O)O)c1ccc(OCc2ccc3scc(-c4cc(OCCOC)cnc4C)c3c2)cc1", "EC50 / nM": 9}

Now look at this one.
Look up EC50 of CC#CC(CC(=O)O)c1ccc(OCc2ccc3scc(-c4ccc(OCCOC)cc4C)c3c2)nc1 (stereo not shown) and report it.
20

###

- SYSTEM: human GPR40 (Homo sapiens (Human), UniProt O14842)
- ASSAY_INFO: GPR40 Calcium Flux Assay
- TEST_CONTEXT: transfected HEK293 cells stably expressing human GPR40; Ca2+ mobilization; mean data; read-out: hGPR40 Ca^2+ Assay EC50
pEC50: −log10 of the molar value.
Each entry gets no (0) if its pEC50 stays under 8, and yes (1) if its pEC50 is 8 or above.

Worked examples, 4 compounds total:
{"COMPOUND": "CC#CC(CC(=O)O)c1ccc(OCc2ccc3scc(-c4ccc(OC5CCOCC5)cc4C)c3c2)nc1 (stereo not drawn)", "LABEL_CLASS": "no (0)"}
{"COMPOUND": "CC#C[C@@H](CC(=O)O)c1ccc(COc2ccc3scc(-c4ccc(C5=CCS(=O)(=O)CC5)cc4C)c3c2)cc1", "LABEL_CLASS": "no (0)"}
{"COMPOUND": "CC#C[C@@H](CC(=O)O)c1ccc(OCc2ccc3scc(-c4ccc(OCCCS(C)(=O)=O)cc4C)c3c2)cc1", "LABEL_CLASS": "yes (1)"}
{"COMPOUND": "Cc1ccccc1-c1csc2ccc(COc3ccc([C@]4(CC(=O)O)C[C@@H](O)C4)cc3)cc12", "LABEL_CLASS": "no (0)"}

Is pEC50 at least 8? Consider "Cc1ncccc1-c1csc2ccc(COc3ccc(C4(CC(=O)O)CC(=O)C4)cc3)cc12"
no (0)

Is pEC50 at least 8? Consider "CC#C[C@@H](CC(=O)O)c1ccc(OCc2ccc3scc(-c4c(C)cccc4NS(C)(=O)=O)c3c2)cc1"
no (0)

###

- SYSTEM: human GPR40 (Homo sapiens (Human), UniProt O14842)
- ASSAY_INFO: GPR40 Calcium Flux Assay
- TEST_CONTEXT: transfected HEK293 cells stably expressing human GPR40; Ca2+ mobilization; mean data; read-out: hGPR40 Ca^2+ Assay EC50
pEC50: −log10 of the molar value.
Each entry gets no if its pEC50 stays under 8, and yes if its pEC50 is 8 or above.

Worked examples, 3 molecules total:
{"MOLECULE": "CC#C[C@H](CC(=O)O)c1ccc(OCc2ccc3scc(-c4ccccc4C)c3c2)cc1", "LABEL_CLASS": "no"}
{"MOLECULE": "CC#CC(CC(=O)O)c1ccc(OCc2ccc3scc(-c4ccc(OCC5(C)CS(=O)(=O)C5)cc4C)c3c2)nc1 (centres unmarked)", "LABEL_CLASS": "no"}
{"MOLECULE": "CC#C[C@@H](CC(=O)O)c1ccc(OCc2ccc3scc(-c4ccc(OC)nc4C)c3c2)cc1", "LABEL_CLASS": "no"}

Is pEC50 at least 8? Consider "CC#C[C@@H](CC(=O)O)c1ccc(OCc2ccc3scc(-c4ccc(OCCOC)cc4C)c3c2)cc1"
yes

Is pEC50 at least 8? Consider "CC#C[C@@H](CC(=O)O)c1ccc(OCc2ccc3scc(-c4cc(Cl)ncc4C)c3c2)cc1"
no
